Each entry below lists one item and its recorded GI50 value.
System: PC3 cells
testName: Cell growth assay, trypan blue dye exclusion count
Format: cell-based
conditions: Homo sapiens, PC-3; concentration for 50% growth inhibition in PC3 cells, 24 hours of treatment, mean ± SEM of three observations; read-out: GI50
Your answer is read as µM, so omit the unit and give the number.

Before answering, review these 4 worked examples.
molecule	observedValue
COc1ccc2c(c1)[nH]c1cc(O)c(C)cc12 [Compound 9, 7-Methoxy-3-methyl-9H-carbazol-2-ol]	15.3
COc1ccc2c(c1)[nH]c1c(C)c(OS(=O)(=O)c3cccc4c(N(C)C)cccc34)ccc12 [Compound 6a]	1.5
COc1ccc2c(c1)[nH]c1cc(OS(=O)(=O)c3cccc4c(N(C)C)cccc34)c(C)cc12 [Compound 7a]	22.9
COc1ccc2c(c1)[nH]c1c(C)c(OCc3ccccc3)ccc12 [Compound 6]	17.6

Which GI50 reading was recorded for the molecule COc1ccc2c(c1)[nH]c1cc(OCc3ccccc3)c(C)cc12 [Compound 7] ?
48.9
